Parameter growth: see the listing below.
Tested on: A498 renal
ASSAY TEXT: NCI-60 one-dose screen, 48 h (100 = growth as untreated, 0 = no growth, -100 = all killed)
RUN PARAMETERS: 10 µM unless noted
About 83,000 compounds went through this panel and 20% of them were active in at least one assay; those are over-represented in the sample as a whole.
Number in %, nothing else.

Reference set (2 entries):
| SMILES REPRESENTATION | TARGET SYSTEM | growth / % |
| --- | --- | --- |
| CCOC(=O)c1c(-c2ccc(C)cc2)c(C#N)c(=O)n(-c2cccc(C(F)(F)F)c2)c1N | A498 renal | 106 |
| O=c1c(/C=C/c2ccco2)nnc2sc(Nc3ccc(Cl)cc3)nn12 | A498 renal | 108 |

Below: the item to evaluate.
q: // lookup growth | system=A498 renal | key= Cc1nc2cccc(NCCCCC(=O)NO)c2c(=O)n1-c1ccccc1
a: 48.5

###

Parameter growth: see the listing below.
Tested on: OVCAR-4 ovarian
ASSAY TEXT: NCI-60 one-dose screen, 48 h (100 = growth as untreated, 0 = no growth, -100 = all killed)
RUN PARAMETERS: 10 µM unless noted
This is part of a sample that, as a whole, favours compounds with a hit. Of some 83,000 tested, about 20% had one in any assay.
Number in %, nothing else.

Reference set (5 entries):
| MOLECULE | TARGET SYSTEM | growth, % |
| --- | --- | --- |
| Nc1c(C(=O)Nc2ccncc2)sc2nc3c(cc12)CCCCCCCC3 | OVCAR-4 ovarian | -84.6 |
| C=C1CCC2C3(C)COC(c4ccc(NC(C)=O)cc4)OC3CCC2(C)C1C/C=C1/C(=O)OCC1O (stereo not drawn) | OVCAR-4 ovarian | 23.7 |
| CCNC(=O)Oc1ccc(/C(=C(/C)Cc2ccc(OC)cc2)c2ccc(OCCN(CC)CC)cc2)cc1 | OVCAR-4 ovarian | 69.4 |
| CCC(=O)Oc1cc(Cl)c(Cl)cc1Cl | OVCAR-4 ovarian | 101 |
| N=c1c2c(-c3ccccc3)c(-c3ccccc3)oc2ncn1NC(=O)c1cccnc1 | OVCAR-4 ovarian | 101 |

q: Which growth is listed for N#C/C(=N\Nc1ccc(Cl)cc1)C(=O)Nc1cc(-c2ccccc2)nn1-c1ccccc1 ?
a: 36.8

q: Which growth is listed for O=C1/C(=C/c2ccc(-c3ccccc3C(F)(F)F)o2)SC(=S)N1CCc1ccc(O)cc1 ?
a: 44.8

q: Which growth is listed for Clc1cccc(Nc2ncnc3ccc(-c4cncc(-n5cnnn5)c4)cc23)c1 ?
a: 90.2

q: Which growth is listed for O=C(Nc1ncc(Cc2cccc(C(F)(F)F)c2)s1)c1ccc2c(c1)OCCO2 ?
a: 37.1

q: Which growth is listed for O=C(CCN1CCOCC1)Nc1cccc(-n2cc(-c3ccncc3)c(-c3ccc(Cl)c(O)c3)n2)c1 ?
a: 66.5

###

Tested on: KM12 colon
ASSAY TEXT: NCI-60 one-dose screen, 48 h
RUN PARAMETERS: 10 µM unless noted
About 83,000 compounds went through this panel and 20% of them were active in at least one assay; those are over-represented in the sample as a whole. Calls of active or inactive are those of the source. The calls were made as follows: active = growth percent below 10; inactive = the rest.
Respond only with the outcome that fits, drawn from active, inactive

| MOLECULE | TARGET SYSTEM | ASSIGNED LABEL |
| --- | --- | --- |
| C=C(CN1CC=CCC1)[C@@H]1CC[C@]2(COC(C)=O)CC[C@]3(C)[C@H](CC[C@@H]4[C@@]5(C)CC[C@H](O)C(C)(C)[C@@H]5CC[C@]43C)[C@@H]12 | KM12 colon | inactive |
| O=C(NCCCN1CCCCC1)c1ccc(-c2nc3ccc4[nH]ncc4c3c3c2CCCC3)cc1 | KM12 colon | inactive |
| COc1ccc2c(c1)oc1c(C)c3c(c(C)c12)C(=O)N(Nc1ccccc1)C3=O | KM12 colon | inactive |
| Nc1ccc(-c2ccc(N)c(Br)c2)cc1Br | KM12 colon | inactive |
| Cc1ccc(C(=O)c2ccc(CC(=O)N=Nc3c(O)[nH]c4ccc(OC(F)(F)F)cc34)n2C)cc1 | KM12 colon | inactive |
| O=C1/C(=C/c2ccc(-c3ccccc3C(F)(F)F)o2)SC(=S)N1CCc1ccc(O)cc1 | KM12 colon | inactive |
| Cc1ccc(C(=O)Nc2nc3c(s2)CN(Cc2ccccc2)CC3)cn1 | KM12 colon | inactive |
| O=S(=O)(Nc1ccc(F)cc1)c1ccc(-c2cnc(C3CC3)o2)cc1 | KM12 colon | inactive |

q: Recorded test outcome, item COc1ccc(C/C(C)=C(/c2ccc(OCCN3CCCC3)cc2)c2ccc(OC(=O)NCc3ccccc3)cc2)cc1
a: inactive

q: Recorded test outcome, item C/C=C(\C)C(=O)N[C@H]1CC[C@]2(C)C3CC[C@@]4(C)C(CC[C@@H]4C(C)N(C)C)C3CCC2[C@H]1OC(C)=O (stereo partly drawn)
a: active

q: Recorded test outcome, item N#Cc1ccccc1OCC(=O)Nc1nc2c(s1)COc1ccccc1-2
a: inactive
